# Tested on: MCF7
# Assay Text: MTT survival assay
# Type: cell-based
# Measurement Context: Homo sapiens, MCF7, 48 h, read-out: IC50, survival

{"Compound": "N#CCCCn1cc(C2=C(c3cn(CCCC#N)c4ccccc34)C(=O)NC2=O)c2ccccc21 [BMA097]", "Study System": "MCF7", "IC50 [µM]": 6.4}

====

# Assay Text: MTT survival assay
# Format: cell-based
# Measurement Context: human, MCF10A cells, IC50, cytotoxicity, 48 hrs

{"Molecule Smiles": "N#CCCCn1cc(C2=C(c3cn(CCCC#N)c4ccccc34)C(=O)NC2=O)c2ccccc21", "IC50 at 48 h": "10.6 µM"}

Attribution: paper PMC5934316
